A collection of compounds and their measured Activity
# system: Amyloid-beta precursor protein (Homo sapiens, UniProt P05067)
# Sequence (P05067 whole entry, the tested form may be a part): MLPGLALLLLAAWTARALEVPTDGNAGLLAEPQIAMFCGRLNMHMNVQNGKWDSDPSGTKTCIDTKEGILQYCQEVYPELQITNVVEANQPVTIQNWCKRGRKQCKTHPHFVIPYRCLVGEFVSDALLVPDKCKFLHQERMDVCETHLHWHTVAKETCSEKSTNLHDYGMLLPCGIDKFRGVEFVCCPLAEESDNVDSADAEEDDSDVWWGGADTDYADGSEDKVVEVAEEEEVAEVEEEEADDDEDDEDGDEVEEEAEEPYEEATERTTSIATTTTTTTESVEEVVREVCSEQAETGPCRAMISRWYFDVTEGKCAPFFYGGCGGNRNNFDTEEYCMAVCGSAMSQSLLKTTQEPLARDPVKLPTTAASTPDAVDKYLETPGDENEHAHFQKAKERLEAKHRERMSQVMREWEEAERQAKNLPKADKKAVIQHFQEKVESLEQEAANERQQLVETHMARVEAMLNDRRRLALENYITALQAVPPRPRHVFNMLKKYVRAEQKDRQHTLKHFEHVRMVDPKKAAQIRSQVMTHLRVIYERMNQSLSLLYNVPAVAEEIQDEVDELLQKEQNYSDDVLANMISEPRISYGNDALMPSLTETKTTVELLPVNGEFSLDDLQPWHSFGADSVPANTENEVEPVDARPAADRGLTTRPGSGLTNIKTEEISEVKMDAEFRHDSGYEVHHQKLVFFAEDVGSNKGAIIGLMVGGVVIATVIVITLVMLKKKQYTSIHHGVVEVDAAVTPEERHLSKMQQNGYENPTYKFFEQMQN
# test summary: Inhibition of amyloid beta (1 to 42) (unknown origin) assessed as fibril formation at 10 uM incubated with agitation for 1 min every hr measured over 80 hrs by thioflavin-T assay relative to control
# Set-up: scale not given: the % may be the effect or the level left
Please answer using the number first and the unit second.

Some entries whose results are on file:
O=C(/C=C/c1ccc(O)c(O)c1)NCCOCCOCCOCCOCCOCCNC(=O)/C=C/c1ccc(O)c(O)c1	67.6%
C#CCNC(=O)/C=C/c1ccc(O)c(O)c1	79.4%
O=C(/C=C/c1ccc(O)c(O)c1)NCc1cn(Cc2ccc(Cn3cc(CNC(=O)/C=C/c4ccc(O)c(O)c4)nn3)cc2)nn1	76.5%

# input for lookup
// Activity lookup, compound = O=C(/C=C/c1ccc(O)c(O)c1)NCCCCc1cn(Cc2ccc(-c3ccc(Cn4cc(CCCCNC(=O)/C=C/c5ccc(O)c(O)c5)nn4)cc3)cc2)nn1 , result: 61.8%

* * *

# system: Amyloid-beta precursor protein (Homo sapiens, UniProt P05067)
# test summary: Inhibition of amyloid beta (1 to 42) fibrillization (unknown origin) at 12.5 to 25 uM incubated with agitation for 1 min every hr measured over 80 hrs by transmission electron microscopy
Active and inactive are the calls of the source. The calls are words filed in the database; no cut-off is given here.
Allowed answers: 1 (yes) (active), 0 (no) (inactive)

O=C(/C=C/c1ccc(O)c(O)c1)NCCCNC(=O)/C=C/c1ccc(O)c(O)c1	1 (yes)
O=C(/C=C/c1ccc(O)c(O)c1)NCCOCCOCCOCCOCCNC(=O)/C=C/c1ccc(O)c(O)c1	0 (no)
COc1cc(/C=C/C(=O)CC(=O)/C=C/c2ccc(O)c(OC)c2)ccc1O	1 (yes)
O=C(/C=C/c1ccc(O)c(O)c1)NCCOCCOCCOCCOCCOCCNC(=O)/C=C/c1ccc(O)c(O)c1	0 (no)

### Prompt For O=C(/C=C/c1ccc(O)c(O)c1)NCCOCCOCCNC(=O)/C=C/c1ccc(O)c(O)c1 , what call appears in the results of this test?
### Response 0 (no)

### Prompt For O=C(/C=C/c1ccc(O)c(O)c1)NCCOCCOCCOCCNC(=O)/C=C/c1ccc(O)c(O)c1 , what call appears in the results of this test?
### Response 0 (no)

### Prompt For O=C(O)/C=C/c1ccc(O)c(O)c1 , what call appears in the results of this test?
### Response 1 (yes)

* * *

# system: Amyloid-beta precursor protein (Homo sapiens, UniProt P05067)
# test summary: Disaggregation of amyloid beta (1 to 42 residues) (unknown origin) preformed fibrils incubated with agitation for 1 min every hr measured over 80 hrs by thioflavin-T assay
measured parameter: IC50
Please answer using the number first and the unit second.

// IC50 lookup, compound = O=C(/C=C/c1ccc(O)c(O)c1)NCCCNC(=O)/C=C/c1ccc(O)c(O)c1 , result: 4.2 µM
